molecular target: Human M4 (Homo sapiens, UniProt P08173); assay: mAChR M4 cell-based functional assay (calcium flux, potentiation of EC20 acetylcholine response)
Sequence (P08173 whole entry): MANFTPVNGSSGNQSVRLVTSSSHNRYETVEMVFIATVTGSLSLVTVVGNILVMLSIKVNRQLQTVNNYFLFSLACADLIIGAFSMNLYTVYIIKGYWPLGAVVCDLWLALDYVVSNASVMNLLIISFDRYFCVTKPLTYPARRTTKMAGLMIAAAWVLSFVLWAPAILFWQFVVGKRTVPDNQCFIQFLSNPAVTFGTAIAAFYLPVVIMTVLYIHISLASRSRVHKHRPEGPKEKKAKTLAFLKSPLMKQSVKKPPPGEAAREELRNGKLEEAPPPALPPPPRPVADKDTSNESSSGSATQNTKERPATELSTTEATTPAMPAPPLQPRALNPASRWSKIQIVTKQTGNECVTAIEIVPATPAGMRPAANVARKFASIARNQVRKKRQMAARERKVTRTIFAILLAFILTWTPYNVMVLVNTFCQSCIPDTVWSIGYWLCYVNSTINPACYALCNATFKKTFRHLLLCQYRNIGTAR
Counter-ions that a name gives are not always drawn.
Recorded measurements of EC50, one per entry
Show the value, then the unit it is measured in.

{"columns": ["compound", "EC50"],
 "data": [
  ["[2H]C([2H])([2H])C(O)(c1ccc(CNc2nncc3c2sc2nnc(C)c(C)c23)cc1)C([2H])([2H])[2H]", "746 nM"],
  ["Cc1nnc2sc3c(NCc4ccc(C(C)(C)CO)cc4F)nncc3c2c1C", "779 nM"],
  ["Cc1nnc2sc3c(N4CC[C@H](Oc5cccnc5)C4)nncc3c2c1C", "214 nM"],
  ["COCCCNc1nncc2c1sc1nc(C)c(Cl)c(C)c12 [Compound 7, hydrochloride]", "340 nM"],
  ["Cc1nnc2sc3c(N4CC(Oc5cccnc5)C4)nncc3c2c1C", "2110 nM"],
  ["[2H]C([2H])(Nc1nncc2c1sc1nnc(C)c(C)c12)c1ccc(C(C)(C)O)cc1", "727 nM"]
]}

Short answer please: EC50, Human M4 (Homo sapiens, UniProt P08173), entry Cc1nc2sc3c(N4CCCC4)nnc(C)c3c2c(C)c1Cl 1630 nM

###

target: Human M4 (Homo sapiens, UniProt P08173); test: mAChR M4 cell-based functional assay (calcium flux, potentiation of EC20 acetylcholine response)
Structures can show the parent of a compound that is named as a salt.
Rule: EC50 below 600 nM gives T. Equal to or above 600 nM gives F.

{"columns": ["compound", "group"],
 "data": [
  ["COc1ccc(CNc2nncc3c2sc2nc(C)c(Cl)c(C)c23)cc1F [Compound 5]", "F"],
  ["Cc1nc2sc3c(NCc4ccc(OC(F)F)cc4)nncc3c2c(C)c1Cl [Compound 4]", "T"],
  ["Cc1nnc2sc3c(NCc4ccc(-n5cccn5)cc4)nncc3c2c1C [Compound 18]", "T"],
  ["Cc1nc2sc3c(N4CC5CC5C4)nncc3c2c(C)c1Cl (centres unmarked) [Compound 3]", "T"]
]}

Let's switch to this compound now.
Say whether its EC50 is strictly beneath 600 nM. Entry: Cc1nc2sc3c(NC4CC4)nncc3c2c(C)c1Cl [Compound 11, hydrochloride] T

###

target: Human M4 (Homo sapiens); assay: mAChR M4 cell-based functional assay (calcium flux, potentiation of EC20 acetylcholine response); parameters: dose or concentration left out as unconfirmed; settings: CHO-K1
Structures can show the parent of a compound that is named as a salt.
measure.name: Emax (%)
// return numeric value only (unit: %, not printed)

Examples with answers:
{"columns": ["compound", "result.units", "Emax"],
 "data": [
  ["Cc1nc2sc3c(N4CCCC4)nnc(C)c3c2c(C)c1Cl", "%", 50.4],
  ["COc1ccc(CNc2nncc3c2sc2nnc(C)c(C)c23)cc1F", "%", 86.7],
  ["Cc1nc2sc3c(NC4CC4)nncc3c2c(C)c1Cl [Compound 11, hydrochloride]", "%", 100],
  ["Cc1nnc2sc3c(NCc4ccc(C(C)(C)O)cc4)nncc3c2c1C", "%", 99.4],
  ["Cc1nc2sc3c(NCc4ccc(OC(F)F)cc4)nncc3c2c(C)c1Cl", "%", 41],
  ["Cc1nnc2sc3c(NCc4ccc(C(C)(C)CO)cc4F)nncc3c2c1C", "%", 77.4],
  ["COCCCNc1nncc2c1sc1nc(C)c(Cl)c(C)c12 [Compound 7, hydrochloride]", "%", 70],
  ["Cc1nnc2sc3c(NCc4ccc(-n5cccn5)cc4)nncc3c2c1C", "%", 72.7]
]}

For the next question, use this compound.
What value of Emax on Human M4 (Homo sapiens) does Cc1nnc2sc3c(N4CCCC4)nncc3c2c1C have? 95.8

###

Item-by-item account of Emax
target: Human M4 (Homo sapiens, UniProt P08173); experiment: mAChR M4 cell-based functional assay (calcium flux, potentiation of EC20 acetylcholine response); parameters: dose or concentration left out as unconfirmed; settings: CHO-K1
The reply should contain only the number, in %.

{"columns": ["compound", "Emax, %"],
 "data": [
  ["Cc1nnc2sc3c(N4CC(Oc5cccnc5)C4)nncc3c2c1C [Compound 19]", 51.3],
  ["COc1ccc(CNc2nncc3c2sc2nc(C)c(Cl)c(C)c23)cc1F [Compound 5]", 69.4],
  ["Cc1nc2sc3c(N4CC5CC5C4)nncc3c2c(C)c1Cl (stereo not drawn) [Compound 3]", 80.4],
  ["[2H]C([2H])([2H])C(O)(c1ccc(CNc2nncc3c2sc2nnc(C)c(C)c23)cc1)C([2H])([2H])[2H] [Compound 14]", 89.4],
  ["Cc1nnc2sc3c(N4CC[C@H](Oc5cccnc5)C4)nncc3c2c1C [Compound 20]", 70.3]
]}

# get_value(readout= Emax, system= Human M4 (Homo sapiens, UniProt P08173)) for [2H]C([2H])(Nc1nncc2c1sc1nnc(C)c(C)c12)c1ccc(C(C)(C)O)cc1 [Compound 13] 91.9
